Ref: patent US4025506A

- Tested on: E. coli 51A266
- Assay Explanation: In vivo protection against E. coli infection in mice (Table IV)
- Experimental Parameters: SC, 50 mg./kg., doses 0.5, 4 and 24 hours after inoculation
- Procedure: Table IV presents in vivo comparison data for the four compounds in Table III against E. coli infections in mice. The values, reported as % survivors, are obtained under standard conditions familiar to those skilled in the art. The test compound is administered to the infected mice by a multiple dosing regimen in which the first dose is given 0.5 hour after inoculation and is repeated 4 and 24 hours later.
Result Type: % Survivors

Use these answered entries as a reference point.
CC1(C)S[C@@H]2[C@H](NC(=O)C(NC(=O)CNC(=N)c3ccc(Cl)cc3)c3ccccc3)C(=O)N2[C@H]1C(=O)O (stereo partly shown) :: 60%
CC1(C)S[C@@H]2[C@H](NC(=O)C(NC(=O)CNC(=N)c3ccc(Br)cc3)c3ccccc3)C(=O)N2[C@H]1C(=O)O (stereo partly shown) :: 60%
CC1(C)S[C@@H]2[C@H](NC(=O)C(NC(=O)CNC(=N)c3ccc(F)cc3)c3ccccc3)C(=O)N2[C@H]1C(=O)O (stereo partly shown) :: 70%

// switching to the query molecule
Input line: Record lookup: for E. coli 51A266, what % Survivors belongs to CC1(C)S[C@@H]2[C@H](NC(=O)C(NC(=O)CNC(=N)c3ccccc3)c3ccccc3)C(=O)N2[C@H]1C(=O)O (stereo partly shown) ?
Output line: 70%
